Please provide measured IC50 for the entries that follow.
biological target: T1, human PD-1 extracellular domain fused with mouse Fc (PD-1-mFc) (human, UniProt Q15116 25-170); test: blockage ELISA, coated PD-1-mFc, competitor PDL-1-mFc-biotin
T1 construct: extracellular domain; not used because of the label; also called hPD-1-mFc; human PD-1-mouse Fc fusion protein
T1 sequence (Q15116 25-170): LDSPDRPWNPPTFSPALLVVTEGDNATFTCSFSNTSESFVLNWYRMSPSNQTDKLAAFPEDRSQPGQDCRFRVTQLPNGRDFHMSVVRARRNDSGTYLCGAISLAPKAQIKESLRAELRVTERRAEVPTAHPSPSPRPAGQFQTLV
Entry rule: numbers only, all in µg/mL.

input: Would you kindly share the measured IC50 for 15H5 murine anti-PD-1 antibody (antibody, V domains shown, Purified hybridoma antibody; also called 15H5-mIgG1) VH: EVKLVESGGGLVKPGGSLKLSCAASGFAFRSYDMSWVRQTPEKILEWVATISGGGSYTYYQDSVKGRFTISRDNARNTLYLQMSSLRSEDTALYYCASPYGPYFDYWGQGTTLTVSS VL: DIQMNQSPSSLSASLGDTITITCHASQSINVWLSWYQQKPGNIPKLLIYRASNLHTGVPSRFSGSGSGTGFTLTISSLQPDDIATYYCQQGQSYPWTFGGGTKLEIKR ?
output: 0.873

input: Recorded IC50 of 4C10 murine anti-PD-1 antibody (antibody, V domains shown, Purified hybridoma antibody; also called 4C10-mIgG1) VH: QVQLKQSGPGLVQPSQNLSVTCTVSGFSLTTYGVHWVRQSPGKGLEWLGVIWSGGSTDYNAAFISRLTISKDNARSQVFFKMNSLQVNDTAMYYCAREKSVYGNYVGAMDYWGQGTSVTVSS VL: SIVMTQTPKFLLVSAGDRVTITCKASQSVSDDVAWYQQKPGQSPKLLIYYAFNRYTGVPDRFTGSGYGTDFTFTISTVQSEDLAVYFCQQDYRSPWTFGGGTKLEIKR , please.
output: 1.46
